# System: SK-MEL-28 melanoma
# protocol-description: NCI-60 one-dose screen, 48 h
# settings: 10 µM unless noted
About 83,000 compounds went through this panel and 20% of them were active in at least one assay; those are over-represented in the sample as a whole. Calls of active or inactive are those of the source. Rule for the calls: active = growth percent below 10; inactive = the rest.
Possible outcomes: active, inactive

[
  {
    "compound": "CNC(=O)c1cc(N2CCc3cc(NC(=O)Nc4ccc(Cl)c(C(F)(F)F)c4)ccc32)ccn1",
    "assigned-label": "inactive"
  },
  {
    "compound": "COc1ccc(/C=C/C(=O)c2cc(S(N)(=O)=O)c(OC)cc2OC)cc1",
    "assigned-label": "inactive"
  },
  {
    "compound": "Cc1nn(-c2ccccc2)c2ncnc(N/N=C/c3ccccc3O)c12",
    "assigned-label": "inactive"
  },
  {
    "compound": "COC(=O)c1ccc(NC2=C/C(=N/S(=O)(=O)c3ccc(C(=O)O)cc3)c3ccccc3C2=O)cc1",
    "assigned-label": "active"
  },
  {
    "compound": "COc1c(N2CC3CCCNC3C2)c(F)cc2c(=O)c(C(=O)N/N=C/c3ccccc3)cn(C3CC3)c12 (stereo not given)",
    "assigned-label": "inactive"
  },
  {
    "compound": "O=C(Nc1nonc1-c1ccccc1)c1ccc(C(F)(F)F)cc1",
    "assigned-label": "inactive"
  },
  {
    "compound": "CNC(=O)c1cc(-c2ccc(NC(=S)Nc3cc(C(F)(F)F)cc(C(F)(F)F)c3)cc2)nc2cccnc12",
    "assigned-label": "inactive"
  },
  {
    "compound": "N#C/C(=C\\c1ccc(-c2ccc(Cl)cc2Cl)o1)c1ccc(F)cc1",
    "assigned-label": "inactive"
  },
  {
    "compound": "ClC(Cl)c1nc(-c2ccco2)n2nc(-c3ccccc3)cc2n1",
    "assigned-label": "inactive"
  },
  {
    "compound": "CCN1CCN(Cc2ccc(C(=O)Nc3ccc(C)c(Oc4ccc(-c5[nH]nc6ncnc(N)c56)cc4)c3)cc2C(F)(F)F)CC1",
    "assigned-label": "inactive"
  },
  {
    "compound": "COc1c(N2CC3CCCNC3C2)c(F)cc2c(=O)c(C(=O)N/N=C/c3ccc4c(c3)OCO4)cn(C3CC3)c12 (stereo not given)",
    "assigned-label": "inactive"
  },
  {
    "compound": "Clc1cccc(/C=N/Nc2nc(N/N=C/c3cccc(Cl)c3Cl)nc(N3CCCCC3)n2)c1Cl",
    "assigned-label": "inactive"
  },
  {
    "compound": "COc1ccc(S(=O)(=O)NCCCNc2nccc(-c3[nH]c(-c4ccccc4)nc3-c3ccc(Cl)c(O)c3)n2)cc1",
    "assigned-label": "inactive"
  },
  {
    "compound": "COc1cc(Cn2cc3c(c2)-c2onc(CN4CCOCC4)c2CC3)cc(OC)c1OC",
    "assigned-label": "inactive"
  },
  {
    "compound": "C=C(C=O)[C@@H]1CC[C@]2(CO)CC[C@]3(C)[C@H](CC[C@@H]4[C@@]5(C)CCCNC(C)(C)[C@@H]5CC[C@]43C)[C@@H]12",
    "assigned-label": "inactive"
  },
  {
    "compound": "Oc1[nH]c2ccccc2c1Nn1c(N=N/C=c2/ccc3c(c2)C=NN=3)n[nH]c1=S",
    "assigned-label": "inactive"
  },
  {
    "compound": "CCCCCc1ccc(S(=O)(=O)Nc2cccc(-c3csc(NC(=O)CCCCCN4CCN(C)CC4)n3)c2)cc1",
    "assigned-label": "active"
  },
  {
    "compound": "C=C(C)[C@@H]1CC[C@]2(COP(=O)(OCC)OCC)CC[C@]3(C)[C@H](CC[C@@H]4[C@@]5(C)CCCNC(C)(C)[C@@H]5CC[C@]43C)[C@@H]12",
    "assigned-label": "active"
  },
  {
    "compound": "CCOC(=O)C1=NNC(c2ccc(Cl)cc2)C1C(=O)N1C(=S)NC(=O)C1CC(C)C (stereo not given)",
    "assigned-label": "inactive"
  },
  {
    "compound": "CC(=O)O[C@@H]1C(=O)N(c2cnccn2)[C@H]1c1ccccc1[N+](=O)[O-]",
    "assigned-label": "inactive"
  },
  {
    "compound": "COc1ccc2c(c1)c(CC(=O)[Se]CCC#N)c(C)n2C(=O)c1ccc(Cl)cc1",
    "assigned-label": "active"
  },
  {
    "compound": "CC(C)c1ccc(NCc2cn(-c3ccc(C(=O)O)cc3)nc2-c2cc(C(F)(F)F)cc(C(F)(F)F)c2)cc1",
    "assigned-label": "inactive"
  },
  {
    "compound": "COc1cc(Cn2cc3c(c2)-c2onc(CN4CCCC4)c2CC3)cc(OC)c1OC",
    "assigned-label": "inactive"
  },
  {
    "compound": "COCCNc1ccc2ncc(C#Cc3cncc(C(=O)Nc4ccc(CN5CCN(C)CC5)c(C(F)(F)F)c4)c3)n2n1",
    "assigned-label": "active"
  },
  {
    "compound": "O=C1[C@@H]2Cc3c([nH]c4ccccc34)[C@H](c3c(Cl)cccc3Cl)N2C(=O)CN1C1CCN(CC2CCCCC2)CC1",
    "assigned-label": "inactive"
  },
  {
    "compound": "Oc1cccc2ccc(-c3nnc(SCc4ccc(O)c5ncccc45)n3-c3ccccc3)nc12",
    "assigned-label": "inactive"
  },
  {
    "compound": "COc1cc(-c2nn(C(C)(C)C)cc2-c2ccnc(NCCCNS(=O)(=O)c3cccc(F)c3)n2)ccc1Cl",
    "assigned-label": "inactive"
  },
  {
    "compound": "O=C(NNc1nc2cc(F)ccc2n2c(CN3CC4CNCC4C3)ccc12)c1cnccn1 (stereo not given)",
    "assigned-label": "inactive"
  },
  {
    "compound": "N=c1c2cc(-c3ccccc3)oc2ncn1/N=C/c1ccc(Br)cc1",
    "assigned-label": "inactive"
  },
  {
    "compound": "COc1ccc(COc2ccc(/C=C3\\C(=O)Nc4ccccc43)cc2OC)cc1",
    "assigned-label": "inactive"
  },
  {
    "compound": "CC(C)(C)n1nnnc1C(Nc1cccc2c1OCO2)c1cc2cccc3ccc4cccc1c4c32 (stereo not given)",
    "assigned-label": "inactive"
  },
  {
    "compound": "COc1c(N2CC3CCCNC3C2)c(F)cc2c(=O)c(C(=O)N/N=C/c3ccc(N(C)C)cc3)cn(C3CC3)c12 (stereo not given)",
    "assigned-label": "inactive"
  },
  {
    "compound": "Nc1nc(-c2cccc([N+](=O)[O-])c2)c(N=Nc2ccccc2)s1",
    "assigned-label": "inactive"
  },
  {
    "compound": "NS(=O)(=O)c1ccc(Nc2nc(SCc3ccccc3)nc3ccccc23)cc1",
    "assigned-label": "inactive"
  },
  {
    "compound": "CC1(COc2ccc3ncc(C#Cc4cncc(C(=O)Nc5cccc(C(F)(F)F)c5)c4)n3n2)COC1",
    "assigned-label": "inactive"
  }
]

Cited source: PubChem BioAssay (NCI)
